Here, each record is paired with measured inhibition at 10 µM data.
Target: PI3Kδ (Homo sapiens, UniProt O00329)
Construct: purchased Millipore 14-604
Sequence (O00329 whole entry): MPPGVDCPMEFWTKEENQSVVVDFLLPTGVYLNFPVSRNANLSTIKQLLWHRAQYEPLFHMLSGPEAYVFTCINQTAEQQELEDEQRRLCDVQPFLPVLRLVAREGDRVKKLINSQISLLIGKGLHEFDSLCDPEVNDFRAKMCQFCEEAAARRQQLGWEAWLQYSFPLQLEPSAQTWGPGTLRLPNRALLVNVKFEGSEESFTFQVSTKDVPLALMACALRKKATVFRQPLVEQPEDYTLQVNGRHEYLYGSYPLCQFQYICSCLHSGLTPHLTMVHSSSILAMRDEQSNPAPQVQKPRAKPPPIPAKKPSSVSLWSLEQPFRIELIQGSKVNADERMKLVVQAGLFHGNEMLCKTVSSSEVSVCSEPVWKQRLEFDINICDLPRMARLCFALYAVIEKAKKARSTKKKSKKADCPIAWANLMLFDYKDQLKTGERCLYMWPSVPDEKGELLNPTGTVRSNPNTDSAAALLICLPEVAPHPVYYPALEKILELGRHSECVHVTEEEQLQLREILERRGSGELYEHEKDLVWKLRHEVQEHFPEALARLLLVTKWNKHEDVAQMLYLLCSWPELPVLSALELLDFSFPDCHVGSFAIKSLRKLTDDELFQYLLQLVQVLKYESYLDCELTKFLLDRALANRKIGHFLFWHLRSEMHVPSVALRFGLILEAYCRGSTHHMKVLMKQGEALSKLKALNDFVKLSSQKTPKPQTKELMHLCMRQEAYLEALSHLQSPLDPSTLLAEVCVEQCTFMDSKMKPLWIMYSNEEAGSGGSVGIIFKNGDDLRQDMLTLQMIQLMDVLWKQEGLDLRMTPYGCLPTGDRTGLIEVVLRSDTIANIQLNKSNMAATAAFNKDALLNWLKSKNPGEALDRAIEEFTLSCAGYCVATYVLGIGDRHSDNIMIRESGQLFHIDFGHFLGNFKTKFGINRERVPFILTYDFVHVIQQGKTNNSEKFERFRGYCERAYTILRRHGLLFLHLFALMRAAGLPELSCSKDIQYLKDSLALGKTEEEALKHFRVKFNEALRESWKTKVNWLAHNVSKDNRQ
Sequence (P27986 whole entry partner): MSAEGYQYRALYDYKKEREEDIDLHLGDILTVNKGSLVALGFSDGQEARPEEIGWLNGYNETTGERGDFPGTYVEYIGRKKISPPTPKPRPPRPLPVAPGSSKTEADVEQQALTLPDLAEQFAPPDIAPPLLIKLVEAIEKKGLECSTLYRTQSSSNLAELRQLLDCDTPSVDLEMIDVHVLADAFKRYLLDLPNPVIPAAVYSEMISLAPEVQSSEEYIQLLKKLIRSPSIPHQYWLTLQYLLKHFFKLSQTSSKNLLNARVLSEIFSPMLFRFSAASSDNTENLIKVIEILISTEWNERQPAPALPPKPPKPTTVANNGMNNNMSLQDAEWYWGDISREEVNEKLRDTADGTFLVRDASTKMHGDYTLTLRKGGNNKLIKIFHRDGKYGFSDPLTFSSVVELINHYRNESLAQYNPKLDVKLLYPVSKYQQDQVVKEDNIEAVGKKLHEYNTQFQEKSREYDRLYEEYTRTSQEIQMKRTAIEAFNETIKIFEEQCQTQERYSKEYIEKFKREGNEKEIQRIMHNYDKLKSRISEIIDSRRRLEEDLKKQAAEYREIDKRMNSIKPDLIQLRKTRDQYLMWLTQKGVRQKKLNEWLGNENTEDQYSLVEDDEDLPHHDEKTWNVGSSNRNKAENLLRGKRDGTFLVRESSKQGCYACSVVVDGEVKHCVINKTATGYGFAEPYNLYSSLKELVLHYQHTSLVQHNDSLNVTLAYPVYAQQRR
Assay: Inhibitory activity to PI3K δ, PI 3-Kinase (human) HTRF Assay kit
Type: biochemical
Details: 10 μM (Table 7); read-out: Inhibition rate % to PI3Kδ
readoutLabel: inhibition at 10 µM (%)

CCC(CC)Oc1nc(Nc2ccc3nccc(-c4ccccc4)c3c2)nc2[nH]cnc12 [MED1007-105]
105
c1ccc(-c2ccnc3ccc(Nc4nc(NC5CC5)c5ncn(C6CCNCC6)c5n4)cc23)cc1 [MED1007-66]
19.8
c1ccc(-c2ccnc3ccc(Nc4nc(OC5CCC5)c5nc[nH]c5n4)cc23)cc1 [MED1007-98]
105
CSc1cccc(-c2ccnc3ccc(Nc4nc(NC5CC5)c5nc[nH]c5n4)cc23)c1 [MED1007-88]
103
